System: KM12
Experiment: NCI-60 SRB screen;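 also: half-maximal inhibitory concentration read as cell viability unlike GI50 net growth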
Assay type: cell-based, human
Details: Homo sapiens; KM12; five dose
readoutType: pIC50
Reminder that pIC50 is minus the log10 of a molar concentration.

pIC50 recorded for this compound, N#CC1C(=O)NC(c2ccccc2[N+](=O)[O-])c2sc3c(F)cccc3c21 (stereo not shown) [Compound 5c] , is 4.49

---

Test system: M14
Experiment: NCI-60 SRB screen
Format: cell-based, human
Settings: Homo sapiens; single dose 10^−5 M; M14, Melanoma; read-out: Growth inhibition (%)
readoutType: inhibition at 10 µM (%)
Only the number, expressed in %, is required.

INSERT INTO results (compound, readouttype, valuereported) VALUES
  ('N#CC1=C(Nc2ccccc2F)NC(c2cccc([N+](=O)[O-])c2)c2sc3c(F)cccc3c21 (stereo not drawn) [Compound 10]', 'inhibition at 10 µM', 1.68),
  ('O=[N+]([O-])c1cccc(C2NC(N3CCCCC3)=C(Cl)c3c2sc2c(F)cccc32)c1 (stereo not drawn) [Compound 8c]', 'inhibition at 10 µM', 1.39),
  ('O=[N+]([O-])c1cccc(C2NC(N3CCOCC3)=C(Cl)c3c2sc2c(F)cccc32)c1 (stereo not drawn) [Compound 8b]', 'inhibition at 10 µM', 7.49),
  ('O=[N+]([O-])c1cccc(C2NC3=C(Nc4ccccc4N3)c3c2sc2c(F)cccc32)c1 (stereo not drawn) [Compound 9]', 'inhibition at 10 µM', 1.33),
  ('N#CC1=C(N2CCOCC2)NC(c2cccc([N+](=O)[O-])c2)c2sc3c(F)cccc3c21 (stereo not drawn) [Compound 8e]', 'inhibition at 10 µM', -1.97),
  ('CCN1CCN(C2=C(C#N)c3c(sc4c(F)cccc34)C(c3cccc([N+](=O)[O-])c3)N2)CC1 (stereo not drawn) [Compound 8d]', 'inhibition at 10 µM', 4.65),
  ('N#CC1=C(N2CCCCC2)NC(c2cccc([N+](=O)[O-])c2)c2sc3c(F)cccc3c21 (stereo not drawn) [Compound 8f]', 'inhibition at 10 µM', 0.58),
  ('N#CC1=C(Cl)NC(c2cccc([N+](=O)[O-])c2)c2sc3c(F)cccc3c21 (stereo not drawn) [Compound 7b]', 'inhibition at 10 µM', -5.17);

With those in mind, consider the next compound.
Assay M14, sample CCN1CCN(C2=C(Cl)c3c(sc4c(F)cccc34)C(c3cccc([N+](=O)[O-])c3)N2)CC1 (stereo not drawn) [Compound 8a] , inhibition at 10 µM read: 6.73
